Target: [3H]ifenprodil binding site, rat forebrain membranes (Rattus norvegicus, UniProt P35439+Q00960)
Construct: membrane fraction was prepared from frozen adult rat forebrains; tissue Zivic-Miller Laboratories, Inc
Sequence (Q00960 27-1482, other chains not shown): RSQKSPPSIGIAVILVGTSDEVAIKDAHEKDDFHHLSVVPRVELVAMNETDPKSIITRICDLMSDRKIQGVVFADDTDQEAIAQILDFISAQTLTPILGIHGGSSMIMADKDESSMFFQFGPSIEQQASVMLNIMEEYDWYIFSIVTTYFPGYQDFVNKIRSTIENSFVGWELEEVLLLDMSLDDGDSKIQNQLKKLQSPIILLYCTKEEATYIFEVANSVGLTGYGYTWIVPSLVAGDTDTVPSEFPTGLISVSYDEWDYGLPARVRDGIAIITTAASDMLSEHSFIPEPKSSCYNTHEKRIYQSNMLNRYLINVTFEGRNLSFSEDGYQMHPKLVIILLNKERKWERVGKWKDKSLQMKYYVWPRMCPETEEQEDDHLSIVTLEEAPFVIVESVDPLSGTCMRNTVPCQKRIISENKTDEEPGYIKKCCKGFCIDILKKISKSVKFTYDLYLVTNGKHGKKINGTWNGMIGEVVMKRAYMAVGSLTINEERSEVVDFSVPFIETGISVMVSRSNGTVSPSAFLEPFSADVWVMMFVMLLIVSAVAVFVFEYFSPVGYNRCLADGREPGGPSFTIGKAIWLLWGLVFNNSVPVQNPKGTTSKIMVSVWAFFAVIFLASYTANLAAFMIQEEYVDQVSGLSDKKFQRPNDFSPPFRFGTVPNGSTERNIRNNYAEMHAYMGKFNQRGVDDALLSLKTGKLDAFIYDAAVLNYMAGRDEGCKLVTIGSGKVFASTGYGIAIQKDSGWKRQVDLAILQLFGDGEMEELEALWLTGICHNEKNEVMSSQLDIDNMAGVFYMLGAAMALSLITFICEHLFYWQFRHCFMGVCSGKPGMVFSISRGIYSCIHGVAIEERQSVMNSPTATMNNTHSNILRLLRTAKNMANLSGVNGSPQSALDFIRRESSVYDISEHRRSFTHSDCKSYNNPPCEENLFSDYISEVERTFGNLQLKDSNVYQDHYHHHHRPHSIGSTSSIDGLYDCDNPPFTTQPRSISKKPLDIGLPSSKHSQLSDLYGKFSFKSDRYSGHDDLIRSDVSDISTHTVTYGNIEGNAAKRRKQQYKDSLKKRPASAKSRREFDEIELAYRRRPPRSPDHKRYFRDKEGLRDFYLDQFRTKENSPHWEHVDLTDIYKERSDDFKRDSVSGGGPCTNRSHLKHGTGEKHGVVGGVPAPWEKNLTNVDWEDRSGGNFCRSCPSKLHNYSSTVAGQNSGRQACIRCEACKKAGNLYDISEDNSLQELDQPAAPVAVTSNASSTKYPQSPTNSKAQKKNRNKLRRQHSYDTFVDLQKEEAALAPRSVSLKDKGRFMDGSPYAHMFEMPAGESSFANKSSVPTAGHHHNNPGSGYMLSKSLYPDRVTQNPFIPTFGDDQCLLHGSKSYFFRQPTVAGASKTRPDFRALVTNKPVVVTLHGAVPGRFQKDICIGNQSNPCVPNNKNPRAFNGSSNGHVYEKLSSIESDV
Assay: [3H]Ifenprodil binding assay
Settings: 4 nM [3H]-ifenprodil, 2 hours at room temperature
measurement-label: IC50 (nM)
Report only the number, with the unit nM understood.

The examples below pair each entry with its known result.
{"columns": ["compound", "units-text", "IC50"],
 "data": [
  ["O=c1[nH]c2ccc([C@H]3CC[C@H](NCCOc4ccc(F)cc4)CC3)cc2o1", "nM", 40],
  ["O=c1[nH]c2ccc([C@H]3CC[C@H](NCCCc4ccc(F)cc4)CC3)cc2[nH]1", "nM", 17]
]}

If you can, please state the reported IC50 value of CN(CCCc1ccsc1)[C@H]1CC[C@H](c2ccc3[nH]c(=O)oc3c2)CC1 [Example 52b] .
3

----------
Structures can show the parent of a compound that is named as a salt.
measurement-label: melting point

Please review the entries below; each comes with its answer.
{"columns": ["compound", "melting point"],
 "data": [
  ["CN(CCCc1ccc(F)c(F)c1F)[C@H]1CC[C@H](c2ccc3[nH]c(=O)oc3c2)CC1 (as salt: HCl)", "269 to 274 °C"],
  ["O=c1[nH]c2ccc([C@H]3CC[C@H](NCCCc4ccc(F)cc4)CC3)cc2o1 (as salt: HCl)", "293 to 307 °C"],
  ["CN(C)c1ccc(CCCN(C)[C@H]2CC[C@H](c3ccc4[nH]c(=O)oc4c3)CC2)cc1", "182 to 184 °C"],
  ["C[C@H](CCc1ccccc1)N[C@H]1CC[C@H](c2ccc3[nH]c(=O)oc3c2)CC1 (as salt: HCl)", "291 to 304 °C"],
  ["O=c1[nH]c2ccc([C@H]3CC[C@H](NCCNc4ccccc4)CC3)cc2o1", "293 to 295 °C"],
  ["CN(CCCc1ccccc1F)[C@H]1CC[C@H](c2ccc3[nH]c(=O)oc3c2)CC1 (as salt: HCl) [Example 46b]", "242 to 246 °C"]
]}

Attention now turns to another entry.
# lookup: melting point of CN(CCCc1ccc(F)cc1F)[C@H]1CC[C@H](c2ccc3[nH]c(=O)oc3c2)CC1 (as salt: HCl) [Example 24b]
269 to 272 °C

----------
Where a name gives a salt, the structure may show the parent alone.
Recorded melting point, one value per entry.

Field: example entries. Status: answers known.
{"columns": ["compound", "melting point"],
 "data": [
  ["CN(CCN(C)[C@H]1CC[C@H](c2ccc3[nH]c(=O)oc3c2)CC1)c1ccccc1 (as salt: HCl) [Example 60]", "240 to 243 °C"],
  ["Cc1ccc(CCCN(C)[C@H]2CC[C@H](c3ccc4[nH]c(=O)oc4c3)CC2)cc1 (as salt: HCl) [Example 21]", "213 to 225 °C"],
  ["O=c1[nH]c2ccc(C3=CCC(NCCCc4ccccc4)CC3)cc2o1 (stereo not drawn) [Example 6]", "293 to 295 °C"],
  ["CN(CCCC1CCCCC1)[C@H]1CC[C@H](c2ccc3[nH]c(=O)oc3c2)CC1 (as salt: HCl) [Example 49b]", "247 to 251 °C"],
  ["O=c1[nH]c2ccc([C@H]3CC[C@H](NCCCc4ccc(F)cc4)CC3)cc2[nH]1 (as salt: HCl) [Example 62]", "336 to 339 °C"],
  ["CN(CCOc1ccccc1)[C@H]1CC[C@H](c2ccc3[nH]c(=O)oc3c2)CC1 (as salt: HCl) [Example 22]", "277 to 285 °C"],
  ["O=c1[nH]c2ccc([C@H]3CC[C@H](NCCS(=O)(=O)c4ccccc4)CC3)cc2o1 (as salt: HCl) [Example 16]", "202 to 208 °C"],
  ["Cc1cc2[nH]c(=O)oc2cc1[C@H]1CC[C@H](N(C)CCCc2ccc(F)cc2)CC1 (as salt: salt) [Example 64]", "264 to 267 °C"],
  ["CN(CCCc1ccsc1)[C@H]1CC[C@H](c2ccc3[nH]c(=O)oc3c2)CC1 (as salt: HCl) [Example 52b]", "246 to 248 °C"],
  ["NC(=O)CN(CCCc1ccc(F)cc1)[C@H]1CC[C@H](c2ccc3[nH]c(=O)oc3c2)CC1 (as salt: HCl) [Example 34]", "266 to 270 °C"]
]}

Now examine the next entry.
What does the data say about its melting point? Entry: CC(CCN(C)[C@H]1CC[C@H](c2ccc3[nH]c(=O)oc3c2)CC1)c1ccccc1 (stereo partly drawn) [Example 37b]
61 to 70 °C

----------
Target: NR1A/NR2B NMDA receptor (Rattus norvegicus, UniProt P35439+Q00960)
Assay: Electrophysiological assay at NMDA receptor subunits expressed in Xenopus oocytes
Conditions: cloned rat NR1A/NR2B in Xenopus oocytes, two-electrode voltage clamp, glutamate 100 μM + glycine 1-100 μM; read-out: NR1A/NR2B Oocyte IC50
Would you mind classing the entries by IC50? Ranges: low end: < 60 nM; middle: ≥ 60 nM and < 100 nM; high end: ≥ 100 nM

Into which bin does this molecule go? O=c1[nH]c2ccc([C@H]3CC[C@H](NCCCc4ccccc4)CC3)cc2o1 [Example 1]
low end

----------
Where a name gives a salt, the structure may show the parent alone.
measurement-label: melting point

Consider the reported melting point for these compounds:
{"columns": ["compound", "reported-result"],
 "data": [
  ["CCN(CCCc1ccc(F)cc1)[C@H]1CC[C@H](c2ccc3[nH]c(=O)oc3c2)CC1 (as salt: HCl) [Example 25]", "228 to 231 °C"],
  ["O=c1[nH]c2ccc([C@H]3CC[C@H](NCCOc4ccccc4)CC3)cc2o1 [Example 3]", "159 to 162 °C"],
  ["Cc1ccc(CCCN[C@H]2CC[C@@H](c3ccc4[nH]c(=O)oc4c3)CC2)cc1 (as salt: HCl) [Example 13a]", "263 to 265 °C"],
  ["O=c1[nH]c2ccc([C@H]3CC[C@H](NCCOc4ccc(F)cc4)CC3)cc2o1 [Example 2]", "172 to 176 °C"],
  ["CN(CCCc1nccs1)[C@H]1CC[C@H](c2ccc3[nH]c(=O)oc3c2)CC1 (as salt: HCl) [Example 59]", "237 to 239 °C"]
]}

Looking for the measured melting point of CN(CCCc1ccc(F)cc1)[C@H]1CC[C@H](c2ccc3[nH]c(=O)oc3c2)CC1 [Example 18] , can you help?
62 to 65 °C

----------
Here, each record is paired with measured pIC50 data.
Molecular target: [3H]ifenprodil binding site, rat forebrain membranes (Rattus norvegicus, UniProt P35439+Q00960)
Construct: membrane fraction was prepared from frozen adult rat forebrains; tissue Zivic-Miller Laboratories, Inc
Test: [3H]Ifenprodil binding assay
Details: 4 nM [3H]-ifenprodil, 2 hours at room temperature
Note on units: pIC50 is unitless, being -log10 of a concentration expressed in mol/L.

Previously resolved entries follow.
{"columns": ["compound", "pIC50"],
 "data": [
  ["CC(CCN(C)[C@H]1CC[C@H](c2ccc3[nH]c(=O)oc3c2)CC1)c1ccccc1 (stereo partly drawn) [Example 37b]", 7.49],
  ["CN(CCCc1ccccc1)[C@H]1CC[C@H](c2ccc3[nH]c(=O)oc3c2)CC1", 8.00]
]}

Please look at the following compound next.
Find the recorded pIC50 belonging to Cc1c(F)cccc1CCCN(C)[C@H]1CC[C@H](c2ccc3[nH]c(=O)oc3c2)CC1 [Example 48b] and report it.
7.70

----------
Counter-ions that a name gives are not always drawn.
measurement-label: melting point

I have this compound here, NCCN(CCCc1ccc(F)cc1)[C@H]1CC[C@H](c2ccc3[nH]c(=O)oc3c2)CC1 (as salt: HCl) , and I need its recorded melting point.
161 to 169 °C

What does the data say about its melting point? Entry: CC(C)c1ccc(CCCN(C)[C@H]2CC[C@H](c3ccc4[nH]c(=O)oc4c3)CC2)cc1 (as salt: HCl)
179 to 181 °C

What value of measured melting point is listed for CCN(CCCc1ccc(C(F)(F)F)cc1)[C@H]1CC[C@H](c2ccc3[nH]c(=O)oc3c2)CC1 (as salt: HCl) ?
248 to 252 °C

I am curious: what melting point value has been reported for O=c1[nH]c2ccc([C@H]3CC[C@H](N(CCO)CCCc4ccc(F)cc4)CC3)cc2o1 (as salt: HCl) ?
259 to 262 °C

----------
Biological target: NR1A/NR2B NMDA receptor (Rattus norvegicus, UniProt P35439+Q00960)
Test: Electrophysiological assay at NMDA receptor subunits expressed in Xenopus oocytes
Details: cloned rat NR1A/NR2B in Xenopus oocytes, two-electrode voltage clamp, glutamate 100 μM + glycine 1-100 μM; read-out: NR1A/NR2B Oocyte IC50
measurement-label: IC50
Write down the value, and be sure its unit follows.

{"columns": ["compound", "tested-on", "IC50"],
 "data": [
  ["Cc1ccc(CCCN[C@H]2CC[C@@H](c3ccc4[nH]c(=O)oc4c3)CC2)cc1 [Example 13a]", "NR1A/NR2B NMDA receptor (Rattus norvegicus, UniProt P35439+Q00960)", "80 nM"],
  ["C[C@H](CCc1ccccc1)N[C@H]1CC[C@H](c2ccc3[nH]c(=O)oc3c2)CC1", "NR1A/NR2B NMDA receptor (Rattus norvegicus, UniProt P35439+Q00960)", "60 nM"],
  ["CN(CCCc1ccc(F)cc1)[C@H]1CC[C@H](c2ccc3[nH]c(=O)oc3c2)CC1", "NR1A/NR2B NMDA receptor (Rattus norvegicus, UniProt P35439+Q00960)", "65 nM"],
  ["C[C@H](N[C@H]1CC[C@H](c2ccc3[nH]c(=O)oc3c2)CC1)[C@H](O)c1ccccc1 (stereo in doubt)", "NR1A/NR2B NMDA receptor (Rattus norvegicus, UniProt P35439+Q00960)", "70000 nM"],
  ["O=c1[nH]c2ccc([C@H]3CC[C@H](NCCOc4ccccc4)CC3)cc2o1", "NR1A/NR2B NMDA receptor (Rattus norvegicus, UniProt P35439+Q00960)", "100 nM"]
]}

Now for another entry.
Record Cc1ccc(CCCN[C@H]2CC[C@H](c3ccc4[nH]c(=O)oc4c3)CC2)cc1 [Example 13b] : what is its IC50 with NR1A/NR2B NMDA receptor (Rattus norvegicus, UniProt P35439+Q00960)?
20 nM
